Hello, the source for this data is patent US20220411498A1, in case you need it.

# system_tested: T1, cyno CD39 on the cell surface (293T/17-cyno CD39 cells) (cyno, UniProt P49961 7-510 (human entry))
# T1 construct: 293T/17 cells stably transfected with the cyno CD39 gene
# T1 chain: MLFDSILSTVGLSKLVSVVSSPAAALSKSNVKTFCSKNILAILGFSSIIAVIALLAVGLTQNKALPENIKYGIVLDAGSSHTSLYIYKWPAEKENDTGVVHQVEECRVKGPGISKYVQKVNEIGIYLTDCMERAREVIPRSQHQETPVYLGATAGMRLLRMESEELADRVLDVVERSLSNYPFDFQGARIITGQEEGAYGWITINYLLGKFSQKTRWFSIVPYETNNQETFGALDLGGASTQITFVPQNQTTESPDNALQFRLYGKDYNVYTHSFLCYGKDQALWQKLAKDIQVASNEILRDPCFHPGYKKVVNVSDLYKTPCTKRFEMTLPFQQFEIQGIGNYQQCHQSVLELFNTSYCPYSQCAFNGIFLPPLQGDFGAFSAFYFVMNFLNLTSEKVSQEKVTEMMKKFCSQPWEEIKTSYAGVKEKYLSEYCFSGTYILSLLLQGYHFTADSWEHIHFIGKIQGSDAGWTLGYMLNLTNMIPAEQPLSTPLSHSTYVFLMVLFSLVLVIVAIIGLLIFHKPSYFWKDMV
# experiment_summary: flow cytometry on 293T/17-cyno CD39 cells
recorded_endpoint: Top
Response field accepts a number only; no unit should be typed.

# lookup: Top of 219 hIgG2 (antibody, V domains shown, Chimeric antibody: mouse Fv fused to the human IgG2 constant region; also called chimeric antibody 219) VH: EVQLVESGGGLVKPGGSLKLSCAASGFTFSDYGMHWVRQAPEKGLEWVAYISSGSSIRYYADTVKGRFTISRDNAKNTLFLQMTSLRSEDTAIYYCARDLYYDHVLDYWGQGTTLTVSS VL: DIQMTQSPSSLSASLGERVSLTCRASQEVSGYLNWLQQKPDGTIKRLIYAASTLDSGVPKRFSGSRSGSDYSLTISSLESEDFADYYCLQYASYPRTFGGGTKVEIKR
214

Tell me the measured Top of 216 hIgG2 (antibody, V domains shown, Chimeric antibody: mouse Fv fused to the human IgG2 constant region; also called chimeric antibody 216) VH: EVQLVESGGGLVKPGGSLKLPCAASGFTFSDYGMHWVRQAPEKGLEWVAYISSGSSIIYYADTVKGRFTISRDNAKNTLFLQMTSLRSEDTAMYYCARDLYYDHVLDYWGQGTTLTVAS VL: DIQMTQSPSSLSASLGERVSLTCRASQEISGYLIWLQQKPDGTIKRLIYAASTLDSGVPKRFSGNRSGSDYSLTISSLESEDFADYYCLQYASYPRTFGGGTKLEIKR , please.
191

Which Top value is on record for 201 hIgG2 (antibody, V domains shown, Chimeric antibody: mouse Fv fused to the human IgG2 constant region, expressed in 293F cells; also called chimeric antibody 201) VH: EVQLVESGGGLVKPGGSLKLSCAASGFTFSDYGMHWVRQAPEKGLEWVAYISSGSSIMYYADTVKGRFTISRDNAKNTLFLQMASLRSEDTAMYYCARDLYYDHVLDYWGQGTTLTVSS VL: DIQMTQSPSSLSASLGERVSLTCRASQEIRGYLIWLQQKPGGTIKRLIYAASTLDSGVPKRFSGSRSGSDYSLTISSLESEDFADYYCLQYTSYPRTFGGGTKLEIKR ?
209

# lookup: Top of 217 hIgG2 (antibody, V domains shown, Chimeric antibody: mouse Fv fused to the human IgG2 constant region) VH: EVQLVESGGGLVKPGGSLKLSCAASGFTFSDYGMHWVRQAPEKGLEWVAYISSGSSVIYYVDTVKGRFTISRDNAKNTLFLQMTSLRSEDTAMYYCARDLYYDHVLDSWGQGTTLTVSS VL: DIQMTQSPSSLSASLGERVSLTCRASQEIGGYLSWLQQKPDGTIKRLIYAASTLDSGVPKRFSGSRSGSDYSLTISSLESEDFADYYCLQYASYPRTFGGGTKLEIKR
160
